System: NO production in LPS-stimulated RAW 264.7 macrophages
Test: NO production in LPS-stimulated RAW 264.7 macrophages (Griess reaction)
Assay type: cell-based, murine
Conditions: Mus musculus, RAW264.7; LPS-induced RAW 264.7 macrophages; read-out: IC50 of NO production inhibition
metric_name: IC50 (µM)

molecule | metric_name | measurement_units | sign_qualifier | recorded_result
CC(C)C1CC2C(CO)(CC(O)C(O)C2(C)C)c2c(O)cc(O)cc21 (centres unmarked) | IC50 | µM | = | 18
CC(C)c1cc(C=O)c2c(c1O)OC(=O)C1C(C)(C)CCC[C@]21C=O (some centres unmarked) [Compound 4, saficinolide] | IC50 | µM | > | 100
CC(C)c1cc(O)c2c(c1O)[C@@H]1CC3C(C)(C)CCC[C@]23C(=O)O1 (some centres unmarked) | IC50 | µM | = | 23.6
CC(C)c1cc2c(c(O)c1O)[C@]13CO[C@H]2C[C@H]1C(C)(C)C[C@H](O)C3 | IC50 | µM | > | 100
CC(C)c1cc2c(c(O)c1O)[C@@]13CCCC(C)(C)[C@@H]1C[C@@H]2OC3=O | IC50 | µM | = | 21.5

Numbers sourced from paper PMC6332173.
